- Tested on: Level I (normal control) and Level III (abnormal control) control plasma
- protocol_summary: traditional prothrombin time test method using a Fibrometer
- stated_conditions: amino acid stabilizer compound formulated into PT reagent (summary of Examples 1 to 13)
Where a SMILES comes first, the peptide text is derived from it.
readout_kind: Level III/I ratio test results

Here is how some molecules turned out for Level III/I ratio test results.
molecule="NCCCCCC(=O)O [ε-aminocaproic acid]" readout_kind="Level III/I ratio test results" measurement=Unsatis-
molecule="NCC(=O)NCC(=O)O [Glycylglycine] (H-Gly-Gly-OH)" readout_kind="Level III/I ratio test results" measurement=Unsatis-
molecule="NCCCC(=O)O [Gamma aminobutyric acid]" readout_kind="Level III/I ratio test results" measurement=Satisfac-
molecule="NCCCCC(=O)O [Delta aminovaleric acid]" readout_kind="Level III/I ratio test results" measurement=Satisfac-
molecule="NCCC(=O)O [Beta alanine]" readout_kind="Level III/I ratio test results" measurement=Satisfac-
molecule="N=C(N)NCCC[C@H](N)C(=O)O [Arginine]" readout_kind="Level III/I ratio test results" measurement=Unsatis-

API: the following record is the query input.
Hello, please tell me recorded Level III/I ratio test results for this one: N[C@@H](CC(=O)O)C(=O)O [Aspartic acid]
Unsatis-

These entries and their values trace back to patent US6733985B1.
